Assay: chemical genetic growth profiling, strain panel (AID 1159580);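 note: tested at 20 µM; growth read once vehicle control cultures reached saturation at 30 °C; 1 = growth at the plate median or of vehicle wells; lower values mean less growth of the strain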
Settings: S. cerevisiae deletion strains, growth OD, locus YOR083W, strain WHI5 (second series), hits give low values
The whole screen tested about 5,500 compounds, of which about 2,000 (36%) were called active. Not shown: some 18% with an inconclusive outcome. This is one part of the list.
Kindly supply the reported normalized growth values for the records listed here.
One number for each entry.

// known answers, use as guide
Record request: normalized growth value, item NC(Cc1ccc(N(CCCl)CCCl)cc1)C(=O)O (stereo not given)
0.993

Record request: normalized growth value, item CCn1cc(C(=O)O)c(=O)c2cc(F)c(N3CCNC(C)C3)c(F)c21 (stereo not given)
0.992

Record request: normalized growth value, item CC1COc2c(N3CCN(C)CC3)c(F)cc3c(=O)c(C(=O)O)cn1c23 (stereo not given)
1.02

Record request: normalized growth value, item COc1ccc(CN(CCN(C)C)c2ccccn2)cc1
0.991

New cases:
Record request: normalized growth value, item CC(=O)c1c(O)c(C)c(O)c(Cc2c(O)c3c(c(C(=O)/C=C/c4ccccc4)c2O)OC(C)(C)C=C3)c1O
0.898

----------
Test: chemical genetic growth profiling, strain panel (AID 1159580);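 note: tested at 20 µM; growth read once vehicle control cultures reached saturation at 30 °C; 1 = growth at the plate median or of vehicle wells; lower values mean less growth of the strain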
Conditions: S. cerevisiae deletion strains, growth OD, locus YDR001C, strain nth1
About 2,000 (36%) of roughly 5,500 compounds were called active. About 18% were inconclusive and are not listed. Rule as the data show it: active = normalized growth mostly below about 0.91 (no sharp cut-off); inconclusive = no clear call, values can overlap the other calls; inactive = mostly above about 0.92. Some of the results follow.
The reply should name one outcome from 1.0 (active), 0.0 (inactive)

Answered examples (2):
Test call, this compound: CN1C2C[C@H](OC(=O)[C@H](CO)c3ccccc3)C[C@H]1[C@@H](O)C2
0.0

Test call, this compound: CC#CC1(O)CCC2C3CCC4=CC(=O)CCC4=C3C(c3ccc(N(C)C)cc3)CC21C (centres undefined)
0.0

New cases:
Test call, this compound: O=C1C(Cl)=C(Cl)C(=O)C(Cl)=C1Cl
0.0

Test call, this compound: CN1C2CCC1CC(OC(c1ccccc1)c1ccccc1N)C2 (centres undefined)
0.0

Test call, this compound: COC(=O)C[C@H]1C2(C)CC34OC5(C)O[C@@]6([C@H](OC(C)=O)C(OC(C)=O)[C@]7(C)C(/C(=C(/O)C(C)C)C(=O)O[C@H]7c7ccoc7)[C@@]6(O5)[C@H](OC(C)=O)[C@@]3(O)C2OC(=O)C(C)C)[C@]14C (some centres undefined)
0.0

Test call, this compound: O=C(Oc1cc(O)cc2c1C[C@@H](OC(=O)c1cc(O)c(O)c(O)c1)[C@@H](c1cc(O)c(O)c(O)c1)O2)c1cc(O)c(O)c(O)c1
0.0

Test call, this compound: CCC[C@H](N[C@@H](C)C(=O)N1[C@H](C(=O)O)C[C@@H]2CCCC[C@@H]21)C(=O)OCC
0.0

Test call, this compound: C[n+]1c2cc(N)ccc2cc2ccc(N)cc21
1.0

Test call, this compound: CC(=O)O[C@H]1C[C@@H](OC(C)=O)C(C)(C)C2CC(=O)[C@]3(C)C(CC[C@@]4(C)[C@H](C(=O)O)OC(=O)C5OC543)[C@]21C (some centres undefined)
0.0

----------
Assay: chemical genetic growth profiling, strain panel (AID 1159580);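 note: tested at 20 µM; growth read once vehicle control cultures reached saturation at 30 °C; 1 = growth at the plate median or of vehicle wells; lower values mean less growth of the strain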
Conditions: S. cerevisiae deletion strains, growth OD, locus YOR144C, strain elg1, hits give low values
Hit rate of the full screen: of about 5,500 compounds, about 2,000 (36%) were called active. Not shown: some 18% with an inconclusive outcome. The list shows a part of the results.
Kindly supply the reported normalized growth values for the records listed here.

Record request: normalized growth value, item C[C@]12CCC(=O)C=C1C=CC1C2CC[C@@]2(C)C1CC[C@@]2(O)CCC(=O)O (stereo partly specified)
0.994 (inactive)

Record request: normalized growth value, item CCCCCCCCC(=O)NCc1ccc(O)c(OC)c1
0.989 (inactive)

Record request: normalized growth value, item O=C1NCC2(CCN(CCc3ccccc3)CC2)O1
1 (inactive)

Record request: normalized growth value, item CC(=O)Oc1cc(OC(C)=O)c2c(c1)O[C@H](c1ccc(OC(C)=O)c(OC(C)=O)c1)[C@@H](OC(C)=O)C2
0.982 (inactive)

Record request: normalized growth value, item Cc1ccccc1C(OCCN(C)C)c1ccccc1 (stereo unspecified)
1 (inactive)

Record request: normalized growth value, item Clc1ccc(C(OCCN2CCCCC2)c2ccccc2)cc1 (stereo unspecified)
1 (inactive)

Record request: normalized growth value, item COc1ccc(C(=O)CC(=O)O)c2c1C=CC(C)(C)O2
0.999 (inactive)

Record request: normalized growth value, item C[C@]12CCC(=O)C=C1C=CC1C2CC[C@@]2(C)C1CC[C@@]21CCC(=O)O1 (stereo partly specified)
0.976 (inactive)

Look at each molecule and report its normalized growth.
1. CN1C2CCC1CC(OC(c1ccccc1)c1ccccc1)C2 (stereo unspecified)
2. NCCc1cnc[nH]1
3. CC(=O)S[C@@H]1CC2=CC(=O)CC[C@]2(C)[C@H]2CC[C@@]3(C)[C@@H](CC[C@@]34CCC(=O)O4)C12 (stereo partly specified)

0.993 (inactive)
1.01 (inactive)
1.01 (inactive)
